- PROTOCOL_NOTES: Ex vivo biodistribution study
- ASSAY_CONTEXT: BALB/c nude, mouse, tumor (HT-1080-FAP plus HT-1080-SSTR2 xenograft), 1.48 MBq, total radioactivity
Positions of bridges follow the written chain, without caps; N, C: chain ends. Non-standard residues stand in square brackets, D forms with d. Residues, ends and D or L forms follow the SMILES beside them. *: point of attachment. DOTA = O=C(O)CN1CCN(CC(=O)O)CCN(CC(=O)*)CCN(CC(=O)O)CC1; dPhe(4-NHCONH2) = NC(=O)Nc1ccc(C[C@@H](N)C(=O)O)cc1; Phe(4-Cl) = N[C@@H](Cc1ccc(Cl)cc1)C(=O)O
MEASURED_ATTRIBUTE: tissue uptake at 1 h (%ID/g)
Express the result in %ID/g but write the number alone.

Report tissue uptake at 1 h for C[C@@H](O)[C@@H]1NC(=O)[C@H](CCCCN)NC(=O)[C@@H](Cc2ccc(NC(N)=O)cc2)NC(=O)[C@H](Cc2ccc(O)cc2)NC(=O)[C@H](NC(=O)[C@H](Cc2ccc(Cl)cc2)NC(=O)CN2CCN(CC(=O)O)CCN(CC(=O)O)CCN(CC(=O)O)CC2)CSSC[C@@H](C(=O)N[C@H](Cc2ccc(O)cc2)C(N)=O)NC1=O [^68Ga-DOTA-LM3, metal not drawn, reference compound] ({DOTA}-[Phe(4-Cl)][dC]Y[dPhe(4-NHCONH2)]KTC[dY]-NH2; disulfide 2-7) please. 7.88

###

- TESTED_TARGET: human FAP (Homo sapiens)
- Construct: expressed in transfected cells
- Sequence (Q12884 1-760): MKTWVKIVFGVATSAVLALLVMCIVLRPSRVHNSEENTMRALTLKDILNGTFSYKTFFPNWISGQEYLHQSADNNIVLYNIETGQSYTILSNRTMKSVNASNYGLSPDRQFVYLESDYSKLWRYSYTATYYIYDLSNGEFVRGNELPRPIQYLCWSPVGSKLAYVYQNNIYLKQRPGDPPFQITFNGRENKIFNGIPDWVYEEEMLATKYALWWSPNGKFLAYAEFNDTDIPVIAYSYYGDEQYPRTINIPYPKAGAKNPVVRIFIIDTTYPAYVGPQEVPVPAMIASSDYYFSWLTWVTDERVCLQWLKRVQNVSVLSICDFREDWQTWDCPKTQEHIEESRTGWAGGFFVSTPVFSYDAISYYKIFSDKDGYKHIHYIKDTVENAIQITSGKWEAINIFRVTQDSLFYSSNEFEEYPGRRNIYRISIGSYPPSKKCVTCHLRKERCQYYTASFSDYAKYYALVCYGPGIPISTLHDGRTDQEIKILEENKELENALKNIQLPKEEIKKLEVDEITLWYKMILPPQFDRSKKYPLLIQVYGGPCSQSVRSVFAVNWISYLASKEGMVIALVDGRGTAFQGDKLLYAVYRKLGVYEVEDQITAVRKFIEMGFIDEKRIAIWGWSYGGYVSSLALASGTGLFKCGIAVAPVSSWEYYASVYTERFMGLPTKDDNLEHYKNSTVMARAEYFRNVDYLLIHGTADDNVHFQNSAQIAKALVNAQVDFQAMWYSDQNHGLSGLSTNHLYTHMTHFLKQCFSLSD
- PROTOCOL_NOTES: FAP radioligand binding assay on HT-1080-FAP cells
- ASSAY_CONTEXT: HT-1080-FAP cells, radioligand 68Ga-FAPI-46, 60 min incubation, 8.16 × 10^−5 to 10^−13 M, n = 3; read-out: half-maximal inhibitory concentration, FAP binding
MEASURED_ATTRIBUTE: IC50 (nM)
Express the result in nM but write the number alone.

Report IC50 for CN(CCCN1CCN(C(=O)CN2CCN(CC(=O)O)CCN(CC(=O)O)CCN(CC(=O)O)CC2)CC1)c1ccc2nccc(C(=O)NCC(=O)N3CC(F)(F)C[C@H]3C#N)c2c1 [FAPI-46, reference compound] please. 4.39
